- Tested on: NRF2 activity in H1299-NQO1-YFP cells
- Protocol: NRF2 activity reporter IC50 in H1299-NQO1-YFP cells vs NRF2 pathway activators (IncuCyte, YFP/mCherry)
- Format: cell-based
- Condition Summary: Table 6 NRF2 inhibitors; read-out: Avg IC50
Endpoint: IC50

Here are 4 compounds together with their reported answers.
[[record]]
compound = "CCc1nc(N)ncc1-c1ccc(Cl)cc1 [WCDD101]"
value_reported = "> 20 µM"

[[record]]
compound = "CCc1nc(N)nc(N)c1-c1cc(Cl)ccc1Cl [WCDD120]"
value_reported = "> 10 µM"

[[record]]
compound = "CCc1nc(N)nc(N)c1-c1cccc(N2CCCC2)c1 [WCDD122]"
value_reported = "> 5 µM"

[[record]]
compound = "CCc1ncnc(N)c1-c1cccc(Cl)c1 [WCDD125]"
value_reported = "> 20 µM"


Now look at this entry.
Task: Give recorded IC50. CCc1nc(N)nc(N)c1-c1ccc(S(=O)(=O)C2CCCC2)cc1 [WCDD106]
Output: > 20 µM
